Ref: ChEMBL document CHEMBL1134156

target: Metabotropic glutamate receptor 3 (Rattus norvegicus, UniProt P31422); experiment: Compound was evaluated for the inhibition of binding of [3H]glutamate against rat recombinant Metabotropic glutamate receptor 3 expressed in HEK293 cells
Sequence (P31422 whole entry): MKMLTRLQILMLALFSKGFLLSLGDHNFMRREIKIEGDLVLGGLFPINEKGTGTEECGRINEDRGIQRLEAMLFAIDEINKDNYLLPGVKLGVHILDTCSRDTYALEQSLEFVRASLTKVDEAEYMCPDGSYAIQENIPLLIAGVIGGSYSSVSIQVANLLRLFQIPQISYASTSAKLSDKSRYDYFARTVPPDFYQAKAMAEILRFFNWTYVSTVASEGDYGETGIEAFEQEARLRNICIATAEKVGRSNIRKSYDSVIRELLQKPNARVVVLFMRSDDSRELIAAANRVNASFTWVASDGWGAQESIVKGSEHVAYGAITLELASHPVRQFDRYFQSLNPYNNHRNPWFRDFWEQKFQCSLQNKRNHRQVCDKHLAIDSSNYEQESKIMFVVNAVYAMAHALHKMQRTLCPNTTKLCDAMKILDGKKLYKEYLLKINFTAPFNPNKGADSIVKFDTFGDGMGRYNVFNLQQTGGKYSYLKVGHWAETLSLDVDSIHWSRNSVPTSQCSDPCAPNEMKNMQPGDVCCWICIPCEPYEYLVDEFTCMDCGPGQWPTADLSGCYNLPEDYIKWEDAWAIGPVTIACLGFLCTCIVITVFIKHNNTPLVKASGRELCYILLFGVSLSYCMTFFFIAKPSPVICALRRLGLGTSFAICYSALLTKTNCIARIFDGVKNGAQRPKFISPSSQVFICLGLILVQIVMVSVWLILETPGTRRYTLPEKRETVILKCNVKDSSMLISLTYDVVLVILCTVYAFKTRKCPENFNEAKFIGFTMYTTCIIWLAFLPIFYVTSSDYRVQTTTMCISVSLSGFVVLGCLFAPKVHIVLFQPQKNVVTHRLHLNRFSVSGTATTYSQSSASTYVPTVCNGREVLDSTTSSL
endpoint: IC50 (nM)

compound	measurementTarget	recordedValue
NC(C(=O)O)[C@H]1[C@@H](CCC2c3ccccc3Oc3ccccc32)[C@@H]1C(=O)O (some centres not stated)	Metabotropic glutamate receptor 3 (Rattus norvegicus, UniProt P31422)	75
NC(C(=O)O)[C@H]1[C@@H](CC2c3ccccc3Oc3ccccc32)[C@@H]1C(=O)O (some centres not stated)	Metabotropic glutamate receptor 3 (Rattus norvegicus, UniProt P31422)	1300

* * *

target: UniProtKB Q14416; test: Antagonistic activity against stimulation of GTP (gamma) 35 S binding by glutamate in membranes from CHO cells expressing human Metabotropic glutamate receptor 2
Sequence (Q14416 whole entry): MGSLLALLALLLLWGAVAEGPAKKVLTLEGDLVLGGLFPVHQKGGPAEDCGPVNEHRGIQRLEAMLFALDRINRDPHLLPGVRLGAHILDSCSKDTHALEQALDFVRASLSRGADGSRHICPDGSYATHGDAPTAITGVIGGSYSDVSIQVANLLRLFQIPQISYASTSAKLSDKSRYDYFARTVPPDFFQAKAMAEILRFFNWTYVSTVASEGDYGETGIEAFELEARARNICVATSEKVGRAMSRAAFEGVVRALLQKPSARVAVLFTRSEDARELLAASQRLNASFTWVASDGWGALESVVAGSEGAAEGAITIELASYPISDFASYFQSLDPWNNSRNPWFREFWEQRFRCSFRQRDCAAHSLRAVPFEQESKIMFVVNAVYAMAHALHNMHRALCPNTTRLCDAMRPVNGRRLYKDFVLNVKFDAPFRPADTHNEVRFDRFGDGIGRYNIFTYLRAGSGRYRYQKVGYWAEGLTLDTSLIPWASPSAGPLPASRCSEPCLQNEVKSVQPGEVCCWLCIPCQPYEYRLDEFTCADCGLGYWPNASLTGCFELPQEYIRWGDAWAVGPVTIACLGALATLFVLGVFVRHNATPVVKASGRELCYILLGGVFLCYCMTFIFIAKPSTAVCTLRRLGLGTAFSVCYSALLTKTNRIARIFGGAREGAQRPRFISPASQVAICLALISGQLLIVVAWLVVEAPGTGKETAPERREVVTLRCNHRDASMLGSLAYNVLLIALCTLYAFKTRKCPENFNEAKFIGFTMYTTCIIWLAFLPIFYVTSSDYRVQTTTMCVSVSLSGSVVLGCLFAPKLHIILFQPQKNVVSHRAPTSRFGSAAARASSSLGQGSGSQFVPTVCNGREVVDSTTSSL

molecule	IC50
NC(C(=O)O)[C@H]1[C@@H](CCC2c3ccccc3Oc3ccccc32)[C@@H]1C(=O)O (stereo partly specified)	200 nM
